Test system: NCI/ADR-RES ovarian
Assay: NCI-60 one-dose screen, 48 h (100 = growth as untreated, 0 = no growth, -100 = all killed)
Details: 10 µM unless noted
Procedure: Growth inhibition of the NCI/ADR-RES human […] tumor cell line is measured as a screen for anti-cancer activity. Cells are grown in 96 well plates and exposed to the test compound for 48 hours. Compounds are tested at a single concentration, which is 10^-5 M for most compounds. The reported endpoint is percent growth (GI% or GIPRCNT), where numbers from 0 - 100% represent growth inhibition, and numbers from -100% - 0 represent cell death. For example, a value of 40 represents 60% growth inhibition. […]
About 83,000 compounds went through this panel and 20% of them were active in at least one assay; those are over-represented in the sample as a whole.
Entry flag: rule met if growth reaches 50%; rule not met if it does not.

Worked set:
[
  {
    "COMPOUND": "Cn1c(=O)c2c(nc(Cl)n2CCl)n(C)c1=O",
    "ASSAY_TARGET": "NCI/ADR-RES ovarian",
    "CATEGORY_LABEL": "rule met"
  },
  {
    "COMPOUND": "C=C1C(=O)O[C@H]2[C@H]1CC/C(COC(=O)C(=O)c1cn(C)c3ccc(OC)cc13)=C\\CC[C@@]1(C)O[C@@H]21",
    "ASSAY_TARGET": "NCI/ADR-RES ovarian",
    "CATEGORY_LABEL": "rule not met"
  },
  {
    "COMPOUND": "CC(=O)OC[C@H]1OC(Sc2sc(C(=O)c3ccc(Br)cc3)c(N)c2-c2nc3ccccc3s2)[C@H](OC(C)=O)[C@@H](OC(C)=O)[C@@H]1OC(C)=O (some centres undefined)",
    "ASSAY_TARGET": "NCI/ADR-RES ovarian",
    "CATEGORY_LABEL": "rule met"
  }
]

Request: Could you tell me if the measured growth of `NC(=N\N=C/c1cccc([N+](=O)[O-])c1)/C(N)=N\N=C/c1cccc([N+](=O)[O-])c1` reaches 50% or more?
Response: rule met

Request: Could you tell me if the measured growth of `COc1ccccc1N1C(=O)/C(=C/C2=Cc3ccccc3OC2)SC1=S` reaches 50% or more?
Response: rule met

Request: Could you tell me if the measured growth of `C[C@H](NC(=O)[C@@H]1CSSC[C@@H](NC(=O)c2nc3ccccc3cc2O)C(=O)NCC(=O)N1C)c1ccccc1` reaches 50% or more?
Response: rule met

Request: Could you tell me if the measured growth of `Cc1cc(Cl)ccc1Nc1nc(C(F)(F)F)ccc1C(=O)N/N=C/c1ccc(N(C)C)cc1` reaches 50% or more?
Response: rule not met

Request: Could you tell me if the measured growth of CNC(=O)NCC1OC(n2cnc3c(NC(=O)Nc4ccccc4)ncnc32)C(O[Si](C)(C)C(C)(C)C)C1CC(=O)N(C)OC (centres undefined) reaches 50% or more?
Response: rule met
